Target: MERTK (UniProt Q12866)
Sequence (Q12866 whole entry, looked up): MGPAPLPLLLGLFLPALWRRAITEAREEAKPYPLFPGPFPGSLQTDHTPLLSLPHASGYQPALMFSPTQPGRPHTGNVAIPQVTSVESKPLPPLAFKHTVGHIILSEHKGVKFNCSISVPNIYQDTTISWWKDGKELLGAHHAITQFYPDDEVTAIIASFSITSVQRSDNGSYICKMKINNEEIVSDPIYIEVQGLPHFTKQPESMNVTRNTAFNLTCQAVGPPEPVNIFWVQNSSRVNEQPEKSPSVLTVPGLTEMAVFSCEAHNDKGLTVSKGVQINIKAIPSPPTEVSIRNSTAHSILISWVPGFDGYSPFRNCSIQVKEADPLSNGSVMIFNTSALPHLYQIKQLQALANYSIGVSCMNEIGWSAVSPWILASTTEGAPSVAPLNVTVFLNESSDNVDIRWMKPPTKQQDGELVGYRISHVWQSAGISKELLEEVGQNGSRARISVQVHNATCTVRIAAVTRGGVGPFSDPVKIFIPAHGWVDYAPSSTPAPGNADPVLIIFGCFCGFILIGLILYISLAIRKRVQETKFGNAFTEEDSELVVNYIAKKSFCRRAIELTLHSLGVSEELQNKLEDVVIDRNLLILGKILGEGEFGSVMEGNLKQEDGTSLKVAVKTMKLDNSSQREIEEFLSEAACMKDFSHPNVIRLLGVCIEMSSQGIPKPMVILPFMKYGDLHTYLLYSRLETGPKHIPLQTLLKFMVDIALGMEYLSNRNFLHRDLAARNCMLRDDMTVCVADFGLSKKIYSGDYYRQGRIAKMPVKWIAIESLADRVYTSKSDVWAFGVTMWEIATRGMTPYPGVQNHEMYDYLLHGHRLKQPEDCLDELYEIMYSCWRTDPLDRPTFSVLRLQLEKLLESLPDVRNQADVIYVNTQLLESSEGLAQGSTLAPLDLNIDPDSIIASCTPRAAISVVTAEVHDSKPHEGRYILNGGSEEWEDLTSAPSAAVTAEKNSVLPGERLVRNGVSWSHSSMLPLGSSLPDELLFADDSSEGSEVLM
Assay: phosphorylation enrichment, bacterial display (enrichment ratio); higher = better substrate or ligand; peptides without Tyr show the background;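 also: 11-residue human phosphosite peptides and single-mutation variants displayed on the E. coli surface, counted by deep sequencing, each peptide's frequency after selection divided by its frequency in the unselected input library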;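 also: frequency after pTyr selection over input frequency; kinase dosed for 20-30% of maximal phosphorylation in three min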
# key: entry, value: phosphorylation enrichment
Kindly provide the number alone.

Sample answers from the record:
{"columns": ["Chain", "phosphorylation enrichment"],
 "data": [
  ["SYCYRYCCAAR [SUMF1_Y344_R345C]", 0.437],
  ["VNYGAYINYFK [GLB1_Y488_D491Y]", 0.629],
  ["MASISYDYCRV [BST2_Y6_T4I]", 0.75],
  ["QSRSPYSSRHS [CDK13_Y415_R410Q]", 0.452],
  ["PGVNYYFRVSA", 0.448]
]}

Specify measured phosphorylation enrichment for DPLASYLDKVR [KRT10_Y160_R156P] .
0.441

Specify measured phosphorylation enrichment for RISPEYKQNEI [GJB1_Y243_L239I] .
0.598
